- experimental_target: T1, murine GPC3-his protein (murine, UniProt Q8CFZ4 25-558, limits assumed)
- T1 construct: Bought protein; also called mouse GPC3 protein; murine GPC3 protein; not shown: His tag
- T1 sequence (Q8CFZ4 25-558 limits assumed): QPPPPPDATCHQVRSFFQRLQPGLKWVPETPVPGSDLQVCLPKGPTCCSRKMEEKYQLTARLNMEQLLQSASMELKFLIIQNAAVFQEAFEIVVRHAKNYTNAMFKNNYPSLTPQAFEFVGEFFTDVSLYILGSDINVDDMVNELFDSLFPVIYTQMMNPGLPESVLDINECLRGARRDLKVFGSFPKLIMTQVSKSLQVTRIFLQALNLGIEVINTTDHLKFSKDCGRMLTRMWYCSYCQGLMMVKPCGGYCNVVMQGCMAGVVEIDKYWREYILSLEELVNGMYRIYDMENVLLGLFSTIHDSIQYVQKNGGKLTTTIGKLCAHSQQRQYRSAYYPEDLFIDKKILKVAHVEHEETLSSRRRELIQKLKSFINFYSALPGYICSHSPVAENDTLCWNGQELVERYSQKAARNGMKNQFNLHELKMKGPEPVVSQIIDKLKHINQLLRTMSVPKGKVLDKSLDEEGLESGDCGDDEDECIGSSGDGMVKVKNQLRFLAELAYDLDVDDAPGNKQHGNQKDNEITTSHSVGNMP
- assay: ELISA, murine GPC3-his coated; antibody 0.53 nM
The reader will find reported OD450 nm values listed item by item below.
Provide a numeric answer; units are not to be included.

Below, 2 binders whose answers are already recorded.
[[record]]
binder = "hAb001H1L1 (antibody, human IgG1, V domains shown, Humanized F2.169.2, H1+L1) VH: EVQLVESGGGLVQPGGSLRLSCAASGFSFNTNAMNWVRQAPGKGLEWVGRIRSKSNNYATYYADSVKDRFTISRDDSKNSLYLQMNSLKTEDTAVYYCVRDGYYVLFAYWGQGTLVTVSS VL: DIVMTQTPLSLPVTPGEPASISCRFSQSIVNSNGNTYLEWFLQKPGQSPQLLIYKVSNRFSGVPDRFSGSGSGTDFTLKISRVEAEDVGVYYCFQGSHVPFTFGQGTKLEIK"
observed = 2.8

[[record]]
binder = "hAb001H1aL1b (antibody, human IgG1, V domains shown, Humanized F2.169.2, H1a+L1b) VH: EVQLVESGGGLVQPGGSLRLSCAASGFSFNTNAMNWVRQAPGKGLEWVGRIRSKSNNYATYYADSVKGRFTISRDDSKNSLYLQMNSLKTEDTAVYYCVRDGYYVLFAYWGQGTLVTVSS VL: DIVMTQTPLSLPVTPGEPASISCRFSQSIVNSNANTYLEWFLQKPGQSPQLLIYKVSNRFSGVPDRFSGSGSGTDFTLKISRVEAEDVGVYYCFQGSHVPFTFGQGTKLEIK"
observed = 2.52


Exercise: Answer with the recorded OD450 nm of hAb001H1aL1a (antibody, human IgG1, V domains shown, Humanized F2.169.2, H1a+L1a) VH: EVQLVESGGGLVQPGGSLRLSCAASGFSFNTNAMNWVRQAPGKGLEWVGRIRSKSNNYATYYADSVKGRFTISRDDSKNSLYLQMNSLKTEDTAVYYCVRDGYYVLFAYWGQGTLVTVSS VL: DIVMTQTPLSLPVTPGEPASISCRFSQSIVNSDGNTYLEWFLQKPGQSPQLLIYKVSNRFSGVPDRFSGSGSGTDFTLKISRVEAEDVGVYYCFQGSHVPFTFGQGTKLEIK only.
Key: 2.29

The measured values listed here are drawn from patent US20260116991A1.
